# PROTOCOL_DETAILS: Cytotoxicity, PrestoBlue cell viability assay in HT-22 cells
# Type: cell-based, mouse
# CONDITION_SUMMARY: mouse, HT-22 hippocampal neuronal cells, 100 µM (log C -4); 24 h; read-out: neurotoxicity in HT-22 cells, % of cell viability
ASSAY_READOUT: viability at 24 h, 100 µM

Example entries begin here.
COMPOUND | MEASUREMENT
CC(C)C(=O)Nc1cc(-c2cc3c(s2)C(=O)NC(C)(C)N3)ccn1 | 29%
O=C1NC2(CCOC2)Nc2cc(-c3ccnc(NC(=O)C4CC4)c3)sc21 (stereo not shown) | 29%
NC(=O)Nc1cc(-c2ccnc(NC(=O)C3CC3)c2)sc1C(N)=O | 76%
NC(=O)Nc1cc(-c2cccc(NC(=O)C3CC3)c2)sc1C(N)=O | 45%
COc1nc(-c2ccnc(NC(=O)C3CC3)c2)sc1C(N)=O [II, reference compound] | 64%
O=C1NC2(CCCC2)Nc2cc(-c3ccnc(NC(=O)C4CC4)c3)sc21 | 31%

Ask: Could you tell me which viability at 24 h, 100 µM is on file for CC1(C)NC(=O)c2sc(-c3ccnc(NC(=O)C4CC4)c3)cc2N1 ?
Result: 21%

* * *

# TEST_TARGET: ROCK-1 (Homo sapiens, UniProt Q13464)
# Construct: purchased Promega
# Sequence (Q13464 whole entry): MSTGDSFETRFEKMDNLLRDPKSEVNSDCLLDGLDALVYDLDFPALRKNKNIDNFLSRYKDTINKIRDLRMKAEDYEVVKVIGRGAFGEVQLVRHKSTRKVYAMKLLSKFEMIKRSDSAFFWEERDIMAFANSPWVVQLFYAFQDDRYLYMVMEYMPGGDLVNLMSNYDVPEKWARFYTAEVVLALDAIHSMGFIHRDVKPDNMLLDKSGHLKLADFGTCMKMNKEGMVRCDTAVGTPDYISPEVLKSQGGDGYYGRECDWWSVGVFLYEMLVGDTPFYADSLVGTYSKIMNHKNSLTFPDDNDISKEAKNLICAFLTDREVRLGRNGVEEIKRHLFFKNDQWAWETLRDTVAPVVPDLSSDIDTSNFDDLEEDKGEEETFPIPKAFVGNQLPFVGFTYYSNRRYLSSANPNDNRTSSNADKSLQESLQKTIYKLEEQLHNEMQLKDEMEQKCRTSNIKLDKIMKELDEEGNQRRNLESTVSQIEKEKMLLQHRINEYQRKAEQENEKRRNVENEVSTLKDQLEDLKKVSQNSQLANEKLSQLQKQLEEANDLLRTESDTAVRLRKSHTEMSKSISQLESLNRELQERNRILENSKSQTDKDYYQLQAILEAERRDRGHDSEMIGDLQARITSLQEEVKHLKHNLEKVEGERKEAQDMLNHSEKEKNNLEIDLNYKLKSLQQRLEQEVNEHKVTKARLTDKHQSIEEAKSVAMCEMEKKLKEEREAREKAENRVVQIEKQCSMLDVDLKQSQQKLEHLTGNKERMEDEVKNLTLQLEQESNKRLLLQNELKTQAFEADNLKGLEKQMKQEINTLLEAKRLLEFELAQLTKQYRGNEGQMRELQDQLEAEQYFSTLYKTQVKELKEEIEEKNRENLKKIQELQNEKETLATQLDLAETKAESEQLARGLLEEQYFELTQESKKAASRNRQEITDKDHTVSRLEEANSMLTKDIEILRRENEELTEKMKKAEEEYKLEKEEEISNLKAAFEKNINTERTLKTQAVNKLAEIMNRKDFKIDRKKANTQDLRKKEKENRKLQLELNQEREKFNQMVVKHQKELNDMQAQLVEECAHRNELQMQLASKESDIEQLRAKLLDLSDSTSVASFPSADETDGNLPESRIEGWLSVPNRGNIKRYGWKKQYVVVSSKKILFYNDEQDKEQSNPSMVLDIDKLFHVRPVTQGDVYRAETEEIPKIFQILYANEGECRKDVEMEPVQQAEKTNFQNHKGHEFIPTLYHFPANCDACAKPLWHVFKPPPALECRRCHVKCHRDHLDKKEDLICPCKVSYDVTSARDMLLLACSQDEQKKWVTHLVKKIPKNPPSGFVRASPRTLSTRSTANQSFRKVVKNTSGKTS
# PROTOCOL_DETAILS: ADP-Glo kinase assay, ROCK-1 inhibition
# Type: biochemical
# CONDITION_SUMMARY: mean ± SEM; ATP 5 µM
Lab note - cut at 2000 nM for IC50: yes (1) if strictly below, no (0) if not.

Below, 5 compounds whose answers are already recorded.
COMPOUND | TEST_TARGET | GROUP
O=C1NC2(CCCC2)Nc2cc(-c3ccnc(NC(=O)C4CC4)c3)sc21 | ROCK-1 (Homo sapiens, UniProt Q13464) | yes (1)
CC1(C)NC(=O)c2sc(-c3ccnc(NC(=O)c4ccccc4)c3)cc2N1 | ROCK-1 (Homo sapiens, UniProt Q13464) | no (0)
CC1(C)NC(=O)c2sc(-c3ccncc3)cc2N1 [I, reference compound] | ROCK-1 (Homo sapiens, UniProt Q13464) | yes (1)
O=C1NC2(CCOC2)Nc2cc(-c3ccnc(NC(=O)C4CC4)c3)sc21 (stereo not drawn) | ROCK-1 (Homo sapiens, UniProt Q13464) | no (0)
CC1(C)NC(=O)c2sc(-c3ccnc(NC(=O)C4CC4)c3)cc2N1 | ROCK-1 (Homo sapiens, UniProt Q13464) | yes (1)

Let's switch to this compound now.
Ask: Consider the compound CC1(C)NC(=O)c2sc(-c3ccnc(NCC4CC4)c3)cc2N1 . Is its IC50 strictly less than 2000 nM?
Result: yes (1)

* * *

# TEST_TARGET: ROCK-1 (Homo sapiens, UniProt Q13464)
# Construct: purchased Promega
# PROTOCOL_DETAILS: ADP-Glo kinase assay, ROCK-1 inhibition
# Assay type: biochemical
# CONDITION_SUMMARY: 10 µM; mean ± SD; read-out: % inh. at 10 µM ROCK-1
// values below are reported inhibition at 10 µM
Report the figure in % without appending any unit label.

COMPOUND | READING_UNIT | MEASUREMENT
CC1(C)NC(=O)c2sc(-c3cccc(NS(=O)(=O)C4CCCCC4)c3)cc2N1 | % | 33

Ask: If you can, please state the reported inhibition at 10 µM value of CC(=O)Nc1cc(-c2cc3c(s2)C(=O)NC(C)(C)N3)ccn1 .
Result: 50

Ask: Item CC1(C)NC(=O)c2sc(-c3ccnc(NC(=O)C4CCCCC4)c3)cc2N1 has what recorded inhibition at 10 µM?
Result: 30

Ask: Recorded inhibition at 10 µM of O=C1NC2(CCCO2)Nc2cc(-c3ccnc(NC(=O)C4CC4)c3)sc21 (stereo not drawn) , please.
Result: 40
